Data origin, for the record: FireProtDB (doi:10.1021/bi020450z)

Each entry below carries its reported Tm.
B1: Adrenodoxin, mitochondrial, P00257 (parent)
chain: MAARLLRVASAALGDTAGRWRLLARPRAGAGGLRGSRGPGLGGGAVATRTLSVSGRAQSSSEDKITVHFINRDGETLTTKGKIGDSLLDVVVQNNLDIDGFGACEGTLACSTCHLIFEQHIFEKLEAITDEENDMLDLAYGLTDRSRLGCQICLTKAMDNMTVRVPDAVSDARESIDMGMNSSKIE

- Variants of: B1
- reported-conditions: Bos taurus; pH 8.5; Thermal; CD; Glycine; reversible: YES; structure 1AYF; whole UniProt chain shown
property-name: Tm (°C)

1. F101W; 45.4
2. F117W; 37.3
3. F69W; 46.6
4. F122W; 48.7
5. Y140W; 51.2
